assay: Antioxidant activity assessed as nitric oxide free radical scavenging activity at 10 uM; type: physicochemical
Observation type: Activity (%)
I only need the number, in %, no unit after it.

In the examples that follow, each entry is paired with its recorded Activity.
COc1cc(/C=C/C(=O)C(=Cc2ccc(N(C)C)cc2)C(=O)/C=C/c2ccc(O)c(OC)c2)ccc1O | 22.2
COc1cc(/C=C/c2cc(/C=C/c3ccc(O)c(OC)c3)n(C(=O)c3ccncc3)n2)ccc1O | 50.2
COc1cc(/C=C/C(=O)CC(=O)/C=C/c2ccc(O)c(OC)c2)ccc1O | 22.2

Activity lookup needed for COc1cc(/C=C/C(=O)C(=Cc2ccccc2)C(=O)/C=C/c2ccc(O)c(OC)c2)ccc1O , thanks.
21.2

Activity lookup needed for COc1cc(/C=C/c2cc(/C=C/c3ccc(O)c(OC)c3)n(C(N)=O)n2)ccc1O , thanks.
49.7

Activity lookup needed for COc1cc(/C=C/c2cc(/C=C/c3ccc(O)c(OC)c3)n(C(N)=S)n2)ccc1O , thanks.
52.5

Activity lookup needed for COc1cc(/C=C/C(=O)C(=Cc2ccccc2O)C(=O)/C=C/c2ccc(O)c(OC)c2)ccc1O , thanks.
38

Activity lookup needed for COc1cc(C=C(C(=O)/C=C/c2ccc(O)c(OC)c2)C(=O)/C=C/c2ccc(O)c(OC)c2)ccc1O , thanks.
38.2

Activity lookup needed for COc1cc(/C=C/c2cc(/C=C/c3ccc(O)c(OC)c3)n(-c3ccc([N+](=O)[O-])cc3[N+](=O)[O-])n2)ccc1O , thanks.
20.8

These entries and their values trace back to ChEMBL document CHEMBL3763079.
